Taken from the OligoGym collection.

Each item that follows carries a reported target mRNA inhibition.
target: IRF5; details: ASO, KARPAS-229, 4 µM
After the bases stand the sugars from the 5' end (letter, count) and the backbone: PS all phosphorothioate, else s phosphorothioate and o phosphodiester by linkage. Methylation of C is not given here. e = 2'-O-(2-methoxyethyl) (MOE); k = constrained ethyl (cEt); d = 2'-deoxy (DNA)
Record the value in %, omitting the unit from your answer.

Record GGTGTATTTCCCTGTC (sugars k3 d9 k3 e1, PS) , field target mRNA inhibition: 0

Record ATTTCTGCTCCAGGTT (sugars kkddddddddkekekk, PS) , field target mRNA inhibition: 6

Record GCTTGGTCTTGACCTC (sugars k2 d8 e4 k2, PS) , field target mRNA inhibition: 19

Record CTGACACAGGCGGATG (sugars kkddddddddkekekk, PS) , field target mRNA inhibition: 0

Record GGAAGTGAGTCTCAAA (sugars kkkddddddddkekek, PS) , field target mRNA inhibition: 45
